- tested-target: CDK4/cyclin D1 (Homo sapiens (Human))
- Sequence (P11802 whole entry): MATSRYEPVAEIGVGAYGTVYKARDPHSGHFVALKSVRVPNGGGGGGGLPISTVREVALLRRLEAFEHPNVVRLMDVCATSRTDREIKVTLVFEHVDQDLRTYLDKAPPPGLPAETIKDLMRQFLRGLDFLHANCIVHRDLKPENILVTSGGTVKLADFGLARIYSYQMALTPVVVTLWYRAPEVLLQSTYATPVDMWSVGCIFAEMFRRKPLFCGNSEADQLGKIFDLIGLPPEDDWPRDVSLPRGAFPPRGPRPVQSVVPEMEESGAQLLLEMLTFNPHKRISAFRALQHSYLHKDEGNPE
- Sequence (P24385 whole entry partner): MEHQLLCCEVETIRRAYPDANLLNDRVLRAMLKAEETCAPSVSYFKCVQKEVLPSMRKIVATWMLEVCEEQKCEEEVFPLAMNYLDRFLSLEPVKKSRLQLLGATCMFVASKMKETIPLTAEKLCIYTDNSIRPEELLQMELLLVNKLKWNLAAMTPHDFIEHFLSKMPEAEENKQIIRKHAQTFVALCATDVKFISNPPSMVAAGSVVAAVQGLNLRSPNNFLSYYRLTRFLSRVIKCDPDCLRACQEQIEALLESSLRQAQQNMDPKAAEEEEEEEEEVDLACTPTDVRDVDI
- assay-procedure: Biochemical kinase inhibitory assay, CDK4/cyclin D1
- condition-description: recombinant CDK4/cyclin D1; in the presence of 10 μM ATP
IC50 values, listed per item

- CC(C)n1cnc2ccc3cnc(Nc4ccc(N5CCC(N)CC5)cn4)nc3c21: 10 to 50 nM

Query (compound): `CC(C)n1cnc2ccc3cnc(Nc4ccc(N5CCN[C@@H](C)C5)cn4)nc3c21` ; field requested: IC50 2 to 10 nM

Please do the same for `Cc1nc(Nc2ncc3ccc4ncn(C(C)C)c4c3n2)ccc1N1CCNCC1` as well. < 2 nM

Now try `Cc1nc(Nc2ncc3ccc4ncn(C(C)C)c4c3n2)ccc1N1CCN(C)CC1` . 2 to 10 nM

Also `CCn1cnc2ccc3cnc(Nc4ccc(N5C[C@@H](C)O[C@@H](C)C5)cn4)nc3c21` ? 10 to 50 nM

Also, `Cc1cc(Nc2ncc3ccc4ncn(C5CCC5)c4c3n2)ncc1N1CCOCC1` please. 10 to 50 nM
